Target: T1, human vascular endothelial growth factor receptor-2 Fc chimera (KDR-Fc) (human, UniProt P35968 20-764)
T1 construct: range 1-764; purchased from R&D Systems; also called hKDR; human VEGF-R2-Fc; not shown: human IgG1 Fc
T1 sequence (P35968 20-764 limits assumed, change not shown, form in doubt): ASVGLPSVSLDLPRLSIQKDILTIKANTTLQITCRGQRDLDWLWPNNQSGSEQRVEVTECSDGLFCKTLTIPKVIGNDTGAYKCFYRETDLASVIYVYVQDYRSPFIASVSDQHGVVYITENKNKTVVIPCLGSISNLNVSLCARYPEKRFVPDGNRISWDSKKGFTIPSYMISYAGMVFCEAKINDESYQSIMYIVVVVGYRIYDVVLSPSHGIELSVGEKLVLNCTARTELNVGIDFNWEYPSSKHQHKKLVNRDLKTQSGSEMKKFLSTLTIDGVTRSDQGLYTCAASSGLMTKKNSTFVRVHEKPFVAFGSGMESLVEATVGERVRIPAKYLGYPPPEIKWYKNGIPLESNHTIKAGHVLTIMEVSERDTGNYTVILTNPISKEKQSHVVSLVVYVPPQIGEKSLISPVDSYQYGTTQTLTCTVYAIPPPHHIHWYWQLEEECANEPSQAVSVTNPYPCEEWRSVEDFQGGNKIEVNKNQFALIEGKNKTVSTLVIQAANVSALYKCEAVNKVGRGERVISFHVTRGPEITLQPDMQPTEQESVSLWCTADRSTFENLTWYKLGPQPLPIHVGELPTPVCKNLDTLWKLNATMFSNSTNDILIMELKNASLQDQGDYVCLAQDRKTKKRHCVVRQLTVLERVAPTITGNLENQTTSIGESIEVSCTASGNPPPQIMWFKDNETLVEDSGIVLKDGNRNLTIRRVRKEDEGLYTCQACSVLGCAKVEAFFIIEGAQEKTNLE
Test: radioactive equilibrium binding, 1 nM KDR-Fc
parameter: Binding to 1 nM KDR, % (%)
Answer with a number only, understood to be in %.

Known Binding to 1 nM KDR, % results, listed for orientation:
binder | parameter | reported result
3F1 PR3 (designed binder, tag left out) EVVAATPTSLLISWRHPHFPTRYYRITYGETGGNSPVQEFTVPLQPPTATISGLKPGVDYTITGYAVTLTHNEQYLFTPISINYRT | Binding to 1 nM KDR, % | 9
2′DelB9 PR4 (designed binder, tag left out) EVVAATPTSLLISWRHPHFPTRYYRITYGETGGNSPVQEFTVPLQPPTATISGLKPGVDYTITGYAVTVGPTDHELLTPISINYRT | Binding to 1 nM KDR, % | 11
2′DelB11 PR4 (designed binder, tag left out) EVVAATPTSLLISWRHPHFPTRYYRITYGETGGNSPVQEFTVPLQPPTATISGLKPGVDYTITGYAVTVGQNDHELMTPISINYRT | Binding to 1 nM KDR, % | 11
3′E8 PR4 (designed binder, tag left out) EVVAATPTSLLISWRHPHFPTRYYRITYGETGGNSPVQEFTVPLQPPTATISGLKPGVDYTITGYAVTVAQNDRQLFTPISINYRT | Binding to 1 nM KDR, % | 12

Query binder follows.
Documented Binding to 1 nM KDR, % of 3D4 PR3 (designed binder, tag left out) EVVAATPTSLLISWRHPHFPTRYYRITYGETGGNSPVQEFTVPLQPPTATISGLKPGVDYTITGYAVTVGWNDHELITPISINYRT : 10
